- Test system: COLO 205 colon cancer
- experimentNotes: Cytotoxicity, COLO 205
- experimentalConditions: read-out: cytotoxicity GI50, COLO 205; 50% growth inhibition; average of two determinations; 8640 min
observedProperty: GI50

Some entries whose results are on file:
CCOc1ccc(NCc2cc(OC)c(OC)c(OC)c2)cc1 [109d]	432 nM
COc1cc(CNc2ccc(SC)cc2)cc(OC)c1OC [109e]	3880 nM

Hey, quick one: what's GI50 for each of these?
1. CCc1ccc(NCc2cc(OC)c(OC)c(OC)c2)cc1 [109b]
2. COc1cc(C=Nc2ccc(C(C)C)cc2)cc(OC)c1OC [108f]
3. COc1cc(CNc2ccc(C)cc2)cc(OC)c1OC [109a]

344 nM
> 100000 nM
152 nM

Hey, quick one: what's GI50 for each of these?
1. CCCc1ccc(N=Cc2cc(OC)c(OC)c(OC)c2)cc1 [108g]
2. COc1ccc(NCc2cc(OC)c(OC)c(OC)c2)cc1 [109c]

["> 100000 nM", "235 nM"]

====

- System: five cancer cell cultures
- experimentNotes: MTT cytotoxicity assay, five cancer cell cultures taken together
- experimentalConditions: five cancer cell lines
observedProperty: cytotoxicity (in words)

COc1cc(CCc2ccc(SC)cc2)cc(OC)c1OC [17c]	decreased cytotoxicity
CCN(CC)CCOc1ccc(CCc2cc(OC)c(OC)c(OC)c2)cc1 [17g]	decreased cytotoxicity

====

- Test system: SKMEL-5 melanoma
- experimentNotes: MTT cytotoxicity assay, SKMEL-5
- experimentalConditions: Homo sapiens, SK-MEL-5, […], read-out: Cytotoxicity ED50, SKMEL-5
pIC50: −log10 of the molar value.
The label depends only on pIC50: Criterion met if it is at least 7, Criterion not met if it is smaller.

Take a look at these entries with their results.
COc1ccc(NCc2cc(OC)cc(OC)c2)cc1 [compound 12d]	Criterion not met
COc1cc(/C=C\c2ccncc2)cc(OC)c1OC	Criterion not met
COc1ccc(C(=O)Nc2cc(OC)c(OC)c(OC)c2)cc1OC [11b]	Criterion not met
COc1cc(/C=C/c2ccc(Cl)cc2)cc(OC)c1OC	Criterion not met
COc1ccc(C2Cc3cc(OC)c(OC)c(OC)c3C2=O)cc1 (stereo not drawn)	Criterion not met

Determine whether measured pIC50 meets or exceeds 7 for `COc1cc(/C=C\c2ccc(Br)cc2)cc(OC)c1OC`
Criterion met

Determine whether measured pIC50 meets or exceeds 7 for `COc1cc(CCc2cccnc2)cc(OC)c1OC`
Criterion not met

Determine whether measured pIC50 meets or exceeds 7 for COc1cc(/C=C\c2ccc(C)cc2)cc(OC)c1OC [15d]
Criterion met

Determine whether measured pIC50 meets or exceeds 7 for `COc1ccccc1/C=C\c1cc(OC)c(OC)c(OC)c1`
Criterion not met

Determine whether measured pIC50 meets or exceeds 7 for `COc1cc(/C=C/c2cc(OC)c(OC)c(OC)c2)cc(OC)c1`
Criterion not met

====

- System: MCF-7 breast carcinoma
- experimentNotes: MTT cytotoxicity assay, MCF-7
- experimentalConditions: Homo sapiens, MCF7, […], read-out: Cytotoxicity ED50, MCF-7
observedProperty: pIC50
Answers are plain numbers, as −log10 of the molar value.

Some entries whose results are on file:
CCCOc1ccc(CCc2cc(OC)c(OC)c(OC)c2)cc1 [17b]	5.41
COc1ccc(NCc2cc(OC)c(OC)c(OC)c2)cc1 [compound 12a]	8.62

Next molecule, pIC50 to be filled in.
The value of pIC50 measured for the molecule CCOc1ccc(CCc2cc(OC)c(OC)c(OC)c2)cc1 [17a] turned out to be 6.72

====

For each entry below, report its pIC50 value.
- Test system: five cancer cell cultures
- experimentNotes: MTT cytotoxicity assay, five cancer cell cultures taken together
- experimentalConditions: […], read-out: cytotoxicity ED50, in at least three cell lines
pIC50: −log10 of the molar value.

Some entries whose results are on file:
COc1cc(/C=C/c2ccc(N(C)C)cc2)cc(OC)c1OC	> 6.00
COc1cc(CCc2ccc(N(C)C)cc2)cc(OC)c1OC	> 6.00
COc1cc(/C=C/c2ccc(SC)cc2)cc(OC)c1OC [16c]	~7.00
COc1cc(/C=C\c2ccc(N(C)C)cc2)cc(OC)c1OC	> 6.00
COc1ccc(CCc2cc(OC)c(OC)c(OC)c2)cc1	> 6.00

The value of pIC50 measured for the compound COc1ccc(NCc2cc(OC)c(OC)c(OC)c2)cc1 [compound 12a] turned out to be > 6.00

====

- Tested on: SF-295 CNS cancer
- experimentNotes: Cytotoxicity, SF-295
- experimentalConditions: read-out: cytotoxicity GI50, SF-295; 50% growth inhibition; average of two determinations; 8640 min
For each entry below, report its GI50 value.
Numbers only, in nM.

CCOc1ccc(NCc2cc(OC)c(OC)c(OC)c2)cc1 [109d]	274

Hey, quick one: what's GI50 for each of these?
1. COc1cc(CNc2ccc(C)cc2)cc(OC)c1OC [109a]
2. COc1ccc(NCc2cc(OC)c(OC)c(OC)c2)cc1 [109c]

[163, 266]

====

- System: SKMEL-5 melanoma
- experimentNotes: MTT cytotoxicity assay, SKMEL-5
- experimentalConditions: Homo sapiens, SK-MEL-5, […], read-out: Cytotoxicity ED50, SKMEL-5
For each entry below, report its pIC50 value.
Answers are plain numbers, as −log10 of the molar value.

Some entries whose results are on file:
COc1ccc(/C(=C\c2cc(OC)c(OC)c(OC)c2)C(=O)O)cc1 [23c]	5.64
COc1ccccc1/C=C/c1cc(OC)c(OC)c(OC)c1	4.87
COc1ccc(CNc2cc(OC)c(OC)c(OC)c2)cc1 [12c]	5.95
COC(=O)/C(=C/c1cccc(OC)c1)c1cc(OC)c(OC)c(OC)c1 [compound 24b]	5.82
COc1ccc(Cc2cc(OC)c(OC)c(OC)c2)cc1	7.92

Next molecule, pIC50 to be filled in.
The value of pIC50 measured for the molecule `COc1ccc(/C=C/c2cc(OC)c(OC)c(OC)c2)cc1` turned out to be 6.09

====

For each entry below, report its pIC50 value.
- Test system: SKMEL-5 melanoma
- experimentNotes: MTT cytotoxicity assay, SKMEL-5
- experimentalConditions: Homo sapiens, SK-MEL-5, […], read-out: Cytotoxicity ED50, SKMEL-5
pIC50: −log10 of the molar value.

COc1cc(CCc2ccccc2)cc(OC)c1OC [8f]	< 4.60

Hey, quick one: what's pIC50 for each of these?
1. COc1ccc(/C=C\c2ccc(OC)c(OC)c2OC)cc1 [5d]
2. COc1ccc(CNc2cc(OC)c(OC)c(OC)c2)cc1OC [12b]
3. CCc1ccc(CCc2cc(OC)c(OC)c(OC)c2)cc1 [17e]
4. COc1cc(CCc2ccc(NC(C)=O)cc2)cc(OC)c1OC [compound 8m]
5. COc1cc(OC)c(/C=C/c2ccccc2)c(OC)c1 [6x]

1. 5.96
2. < 4.60
3. 7.33
4. < 4.60
5. < 4.60

====

- Test system: MCF-7 breast carcinoma
- experimentNotes: MTT cytotoxicity assay, MCF-7
- experimentalConditions: Homo sapiens, MCF7, […], read-out: Cytotoxicity ED50, MCF-7
For each entry below, report its pIC50 value.
Give bare numbers, as −log10 of the molar value.

Some entries whose results are on file:
CCN(CC)CCOc1ccc(CCc2cc(OC)c(OC)c(OC)c2)cc1 [17g]	5.37
COc1cc(CCc2ccc(C)cc2)cc(OC)c1OC [17d]	6.66
COc1ccc(C(=O)c2cc(OC)c(OC)c(OC)c2)cc1 [compound 27, 3,4,4',5-Tetramethoxybenzophenone]	7.82
COc1cc(/C=C\c2ccc(O)cc2)cc(OC)c1OC [compound 5o]	5.24
COc1cc(/C=C\c2cccnc2)cc(OC)c1OC [5j]	4.83
COC(=O)/C(=C/c1cccc(OC)c1)c1cc(OC)c(OC)c(OC)c1 [compound 24b]	5.89
COc1ccc(CNc2cc(OC)c(OC)c(OC)c2)cc1 [12c]	6.07

Next molecule, pIC50 to be filled in.
The value of pIC50 measured for the molecule COc1ccc(NC(=O)c2cc(OC)cc(OC)c2)cc1 [11d] turned out to be 5.26

====

- Test system: M14 melanoma
- experimentNotes: Cytotoxicity, M14
- experimentalConditions: read-out: cytotoxicity GI50, M14, 50% growth inhibition, average of two determinations, 8640 min, Hydrochloride
Counter-ions that a name gives are not always drawn.
observedProperty: GI50 (µM)
Give bare numbers, in µM.

CCc1ccc(NCc2cc(OC)c(OC)c(OC)c2)cc1 [110b, Hydrochloride]	0.437

Hey, quick one: what's GI50 for each of these?
1. COc1cc(CNc2ccc(SC)cc2)cc(OC)c1OC [110e, Hydrochloride]
2. COc1cc(CNc2ccc(C)cc2)cc(OC)c1OC.Cl [110a, Hydrochloride]
3. CCOc1ccc(NCc2cc(OC)c(OC)c(OC)c2)cc1 [110d, Hydrochloride]

4.84
0.292
0.532

Just for reference, patent US5430062A is where these values come from.
